Test system: brain gene expression
Experiment: ic-STZ ± PPAR agonist: real time quantitative RT-PCR of temporal lobe, hypothalamus, cerebellum
Format: in vivo, Long Evans rat
Details: temporal lobe

compound	target	NOX 1 mRNA
CC(C)(Sc1ccc(CCN(CCCCC2CCCCC2)C(=O)NC2CCCCC2)cc1)C(=O)O [PPAR-α agonist, GW7647]	brain gene expression	significantly reduced
CC(C)C[C@H](NC(=O)OCC1c2ccccc2-c2ccccc21)C(=O)O [PPAR-γ agonist, F-L-Leu]	brain gene expression	significantly reduced

----------
Molecular target: insulin receptor (Rattus norvegicus)
Construct: from tissue; host or cells: rat brain (temporal lobe)
Sequence (P15127 27-759 limits assumed): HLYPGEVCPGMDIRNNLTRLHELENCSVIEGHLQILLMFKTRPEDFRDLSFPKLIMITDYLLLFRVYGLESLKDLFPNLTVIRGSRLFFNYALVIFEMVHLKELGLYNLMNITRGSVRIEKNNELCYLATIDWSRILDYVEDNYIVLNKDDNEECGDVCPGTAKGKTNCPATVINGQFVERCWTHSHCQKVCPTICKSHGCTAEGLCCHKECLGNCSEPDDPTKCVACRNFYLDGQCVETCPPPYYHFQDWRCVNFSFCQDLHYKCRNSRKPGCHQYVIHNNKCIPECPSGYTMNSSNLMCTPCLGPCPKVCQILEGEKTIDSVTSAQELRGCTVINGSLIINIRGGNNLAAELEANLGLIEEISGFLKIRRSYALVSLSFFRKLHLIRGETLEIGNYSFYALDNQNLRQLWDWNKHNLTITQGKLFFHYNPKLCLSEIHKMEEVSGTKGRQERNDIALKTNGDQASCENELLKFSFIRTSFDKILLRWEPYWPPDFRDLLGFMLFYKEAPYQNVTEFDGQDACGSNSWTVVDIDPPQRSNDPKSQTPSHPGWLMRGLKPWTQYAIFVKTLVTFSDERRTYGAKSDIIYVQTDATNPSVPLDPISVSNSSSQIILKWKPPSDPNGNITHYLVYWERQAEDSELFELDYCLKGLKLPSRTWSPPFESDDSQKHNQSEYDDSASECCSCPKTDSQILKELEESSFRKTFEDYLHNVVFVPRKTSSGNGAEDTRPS
Sequence (P15127 764-1383 limits assumed): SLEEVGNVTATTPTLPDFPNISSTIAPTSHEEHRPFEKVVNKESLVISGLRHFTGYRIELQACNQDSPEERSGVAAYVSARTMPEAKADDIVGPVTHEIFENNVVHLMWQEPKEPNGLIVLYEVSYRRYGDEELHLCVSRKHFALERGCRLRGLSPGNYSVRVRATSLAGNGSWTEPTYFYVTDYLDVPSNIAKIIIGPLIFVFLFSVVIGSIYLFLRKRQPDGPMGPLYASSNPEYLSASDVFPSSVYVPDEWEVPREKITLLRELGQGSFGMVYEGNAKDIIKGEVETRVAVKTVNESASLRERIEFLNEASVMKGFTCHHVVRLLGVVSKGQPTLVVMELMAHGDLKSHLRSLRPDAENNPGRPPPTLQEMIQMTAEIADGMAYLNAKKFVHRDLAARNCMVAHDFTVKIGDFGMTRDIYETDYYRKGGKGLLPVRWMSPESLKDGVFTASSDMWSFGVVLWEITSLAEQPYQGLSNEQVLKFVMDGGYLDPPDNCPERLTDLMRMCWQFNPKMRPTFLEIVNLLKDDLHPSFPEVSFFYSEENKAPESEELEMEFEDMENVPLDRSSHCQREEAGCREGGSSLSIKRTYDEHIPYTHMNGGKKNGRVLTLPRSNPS
Assay: ic-STZ ± PPAR agonist: equilibrium and saturation binding to insulin receptors in the brain
Type: in vivo, Long Evans rat
Conditions: [125I]-insulin tracer; pooled brain membranes, 4 weeks after ic-STZ ± IP PPAR agonist
Each entry below carries its reported BMAX, insulin receptor saturation binding in brains of treated rats.
Give a bare numeral; the unit fmol/mg protein is implied.

Answered examples (2):
compound	output unit	value reported
CC(C)C[C@H](NC(=O)OCC1c2ccccc2-c2ccccc21)C(=O)O	fmol/mg protein	1.127
CCCc1c(OCCCOc2ccc(OCC(=O)O)cc2)ccc(C(C)=O)c1O	fmol/mg protein	2.186

Provide only the value of recorded BMAX, insulin receptor saturation binding in brains of treated rats for CN(N=O)C(=O)NC1C(O)OC(CO)C(O)C1O (stereo not shown)
0.8421

Report BMAX, insulin receptor saturation binding in brains of treated rats for CC(C)(Sc1ccc(CCN(CCCCC2CCCCC2)C(=O)NC2CCCCC2)cc1)C(=O)O
1.172

----------
Item-by-item account of BMAX, IGF-II receptor saturation binding in brains of treated rats
Molecular target: IGF-II receptor (Rattus norvegicus, UniProt G3V824)
Construct: from tissue; host or cells: rat brain (temporal lobe)
Sequence (G3V824 36-2481): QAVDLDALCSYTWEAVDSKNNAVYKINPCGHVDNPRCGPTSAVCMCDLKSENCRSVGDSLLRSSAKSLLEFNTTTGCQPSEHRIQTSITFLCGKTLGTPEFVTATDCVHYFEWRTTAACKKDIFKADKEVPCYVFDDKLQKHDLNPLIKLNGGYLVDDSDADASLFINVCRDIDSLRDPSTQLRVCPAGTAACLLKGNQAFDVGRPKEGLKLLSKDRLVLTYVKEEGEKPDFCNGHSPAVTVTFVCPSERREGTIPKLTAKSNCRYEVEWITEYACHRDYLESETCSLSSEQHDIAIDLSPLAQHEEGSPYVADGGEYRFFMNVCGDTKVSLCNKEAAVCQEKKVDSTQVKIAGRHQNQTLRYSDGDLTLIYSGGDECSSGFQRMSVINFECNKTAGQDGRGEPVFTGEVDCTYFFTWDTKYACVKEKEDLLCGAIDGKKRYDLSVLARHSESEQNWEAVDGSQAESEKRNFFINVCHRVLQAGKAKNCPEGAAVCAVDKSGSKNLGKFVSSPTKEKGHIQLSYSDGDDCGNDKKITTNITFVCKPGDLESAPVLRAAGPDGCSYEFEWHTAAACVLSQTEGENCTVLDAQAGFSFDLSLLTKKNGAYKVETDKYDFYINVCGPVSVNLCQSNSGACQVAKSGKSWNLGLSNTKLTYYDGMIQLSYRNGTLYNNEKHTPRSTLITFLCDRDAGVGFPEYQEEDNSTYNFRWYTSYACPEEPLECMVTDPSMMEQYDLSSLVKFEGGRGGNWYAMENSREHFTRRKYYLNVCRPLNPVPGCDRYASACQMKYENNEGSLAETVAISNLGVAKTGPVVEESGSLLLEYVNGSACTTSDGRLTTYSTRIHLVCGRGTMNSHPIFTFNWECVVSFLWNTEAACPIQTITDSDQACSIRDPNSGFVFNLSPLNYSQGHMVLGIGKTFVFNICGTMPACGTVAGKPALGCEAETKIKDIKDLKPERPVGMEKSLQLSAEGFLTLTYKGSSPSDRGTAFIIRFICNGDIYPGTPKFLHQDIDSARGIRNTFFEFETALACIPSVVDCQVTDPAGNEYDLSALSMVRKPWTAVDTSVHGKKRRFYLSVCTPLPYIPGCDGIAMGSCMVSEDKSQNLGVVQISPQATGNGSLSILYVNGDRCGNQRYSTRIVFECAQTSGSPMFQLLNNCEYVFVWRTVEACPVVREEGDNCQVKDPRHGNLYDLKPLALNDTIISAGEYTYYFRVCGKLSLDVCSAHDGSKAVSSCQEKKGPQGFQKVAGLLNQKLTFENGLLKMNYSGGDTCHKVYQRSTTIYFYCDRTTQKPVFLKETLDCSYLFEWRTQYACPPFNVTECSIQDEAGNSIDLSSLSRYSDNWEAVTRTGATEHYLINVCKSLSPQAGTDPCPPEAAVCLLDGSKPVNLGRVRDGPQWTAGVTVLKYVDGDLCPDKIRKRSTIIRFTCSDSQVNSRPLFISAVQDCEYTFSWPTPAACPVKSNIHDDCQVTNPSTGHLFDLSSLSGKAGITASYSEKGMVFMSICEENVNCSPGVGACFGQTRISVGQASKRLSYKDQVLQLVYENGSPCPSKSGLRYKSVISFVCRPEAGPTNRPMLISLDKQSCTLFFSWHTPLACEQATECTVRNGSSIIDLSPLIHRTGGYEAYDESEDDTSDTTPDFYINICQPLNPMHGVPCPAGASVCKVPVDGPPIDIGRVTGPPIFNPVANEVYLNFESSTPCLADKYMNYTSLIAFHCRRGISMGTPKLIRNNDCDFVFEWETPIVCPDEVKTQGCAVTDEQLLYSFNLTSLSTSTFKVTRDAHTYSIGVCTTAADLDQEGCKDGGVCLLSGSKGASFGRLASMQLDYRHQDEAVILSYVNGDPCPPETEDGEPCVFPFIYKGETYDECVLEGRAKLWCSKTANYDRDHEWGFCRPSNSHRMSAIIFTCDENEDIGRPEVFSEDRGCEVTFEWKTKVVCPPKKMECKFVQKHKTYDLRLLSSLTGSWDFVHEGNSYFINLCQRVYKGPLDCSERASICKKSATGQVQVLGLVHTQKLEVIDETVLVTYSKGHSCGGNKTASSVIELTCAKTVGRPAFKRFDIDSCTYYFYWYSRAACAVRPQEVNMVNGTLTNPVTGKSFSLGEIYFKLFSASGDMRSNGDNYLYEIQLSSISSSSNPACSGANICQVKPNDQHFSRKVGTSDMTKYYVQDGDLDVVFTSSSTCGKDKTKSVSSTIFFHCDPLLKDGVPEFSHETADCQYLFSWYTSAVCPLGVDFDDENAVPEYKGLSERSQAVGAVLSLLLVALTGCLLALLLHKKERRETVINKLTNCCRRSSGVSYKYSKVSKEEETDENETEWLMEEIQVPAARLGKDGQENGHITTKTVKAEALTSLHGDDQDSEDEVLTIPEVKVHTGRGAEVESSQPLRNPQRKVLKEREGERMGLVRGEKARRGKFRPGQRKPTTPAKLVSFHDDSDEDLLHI
Assay: ic-STZ ± PPAR agonist: equilibrium and saturation binding to IGF-II receptors in the brain
Type: in vivo, Long Evans rat
Settings: [125I]-IGF-II tracer; pooled brain membranes, 4 weeks after ic-STZ ± IP PPAR agonist
Protocol: On the same day, sub-sets of the ic-STZ group were given a single intra-peritoneal injection of vehicle (saline), or a PPAR-α (GW7647; 25 ug/Kg), PPAR-δ (L-165,041; 2 μg/Kg), or PPAR-γ (F-L-Leu; 20 μg/Kg) activator (CalBiochem, Carlsbad, Calif.). […] Membrane protein extracted from fresh frozen brain tissue was used for competitive equilibrium and saturation binding assays. […] The precipitate (bound ligand) and supernatant (free ligand) fractions were counted in an LKB CompuGamma CS Gamma counter. […]
Kindly report the value followed by its unit.

Use the examples below as a reference point.
compound	value reported
CN(N=O)C(=O)NC1C(O)OC(CO)C(O)C1O (stereo not shown) [STZ]	6.431 fmol/mg protein
CC(C)(Sc1ccc(CCN(CCCCC2CCCCC2)C(=O)NC2CCCCC2)cc1)C(=O)O [PPAR-α agonist, GW7647]	7.291 fmol/mg protein
CC(C)C[C@H](NC(=O)OCC1c2ccccc2-c2ccccc21)C(=O)O [PPAR-γ agonist, F-L-Leu]	9.223 fmol/mg protein

Now for another entry.
Kindly indicate its recorded BMAX, IGF-II receptor saturation binding in brains of treated rats. Item: CCCc1c(OCCCOc2ccc(OCC(=O)O)cc2)ccc(C(C)=O)c1O [PPAR-δ agonist, L-165,041]
20.22 fmol/mg protein
